Values were extracted from patent US20210238260.

SYSTEM NAME: Factor X (FX), P00742
Sequence (P00742 whole entry, looked up): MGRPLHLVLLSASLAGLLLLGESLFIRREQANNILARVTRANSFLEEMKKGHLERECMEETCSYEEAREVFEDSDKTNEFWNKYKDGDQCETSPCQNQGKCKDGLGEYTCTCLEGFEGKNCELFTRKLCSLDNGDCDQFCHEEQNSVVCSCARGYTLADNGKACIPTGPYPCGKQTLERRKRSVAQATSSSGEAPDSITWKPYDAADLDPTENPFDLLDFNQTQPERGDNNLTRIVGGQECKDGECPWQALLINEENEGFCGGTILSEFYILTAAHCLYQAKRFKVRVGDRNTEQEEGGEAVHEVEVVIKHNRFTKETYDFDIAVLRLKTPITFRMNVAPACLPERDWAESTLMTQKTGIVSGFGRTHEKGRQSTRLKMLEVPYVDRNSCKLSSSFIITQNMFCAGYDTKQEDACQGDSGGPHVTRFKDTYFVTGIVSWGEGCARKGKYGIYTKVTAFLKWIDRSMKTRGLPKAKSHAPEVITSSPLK
READOUT KIND: kcat of FX activation by FIXa (Xase complex with FVIIIa, PC/PS vesicles, Ca2+) (s⁻¹)

INSERT INTO results (protein, value_unit, endpoint_result) VALUES
  ('FIXa-N260S/R318Y/R338E/R403E/E410N (protein) chain 1: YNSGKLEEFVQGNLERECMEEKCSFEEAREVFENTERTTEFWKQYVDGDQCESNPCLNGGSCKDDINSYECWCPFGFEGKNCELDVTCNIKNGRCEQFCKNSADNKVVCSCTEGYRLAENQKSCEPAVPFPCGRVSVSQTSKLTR chain 2: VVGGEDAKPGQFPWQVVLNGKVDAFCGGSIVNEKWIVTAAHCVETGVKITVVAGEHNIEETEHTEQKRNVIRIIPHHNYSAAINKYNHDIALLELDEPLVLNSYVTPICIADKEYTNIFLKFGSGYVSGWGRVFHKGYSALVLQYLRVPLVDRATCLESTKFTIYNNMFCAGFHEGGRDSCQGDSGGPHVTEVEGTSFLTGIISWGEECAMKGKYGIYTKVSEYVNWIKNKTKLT', 's⁻¹', 3.8);
